# Tested on: ICR strain mice
# Assay Comment: Acute toxicity in mice, single tail vein injection
# Format: in vivo
# Assay Context: dose 100 mg/kg, one week
# Method: Healthy ICR strain mice weighing 20-21 g were taken for the experiment, randomly divided into groups of 3 mice per group, regardless of gender. Each compound was administered via a single tail vein injection at a volume of 20 mL/kg. Animal responses were observed immediately postadministration and monitored for one week. The number of animal deaths was recorded and mortality rates calculated.
Assay Metric: Number of deaths (individuals)
Give bare numbers, in individuals.

Guide cases for Number of deaths, answers given:
Molecule	Observed Result
COCC1CC1C#CC#Cc1ccc(C(=O)NC(C(=O)NO)C(C)(C)N)cc1 (mixture of isomers) [Ia/Ib racemate]	0
COC[C@H]1C[C@H]1C#CC#Cc1ccc(C(=O)N[C@H](C(=O)NO)C(C)(C)N)cc1 [Ic]	0
COC[C@@H]1C[C@@H]1C#CC#Cc1ccc(C(=O)N[C@H](C(=O)NO)C(C)(C)N)cc1 [Id]	0

Query string: Identify measured Number of deaths corresponding to CC(C)(N)[C@H](NC(=O)c1ccc(C#CC#C[C@@H]2C[C@H]2CO)cc1)C(=O)NO [ACHN-975]
Result string: 2
